This section presents molecules with their documented melting point values.
PROPERTY MEASURED: melting point

> print(dat)
                                   molecule        recorded.value
1  O=c1oc2ccccc2c(O)c1N=Nc1ccc(-c2nnc(SCc3ccc(F)cc3)o2)cc1 [Compound 11h]     246.6 to 251.6 °C
2  O=c1oc2ccccc2c(O)c1N=Nc1ccc(-c2nnc(SCc3ccc(Cl)cc3)o2)cc1 [Compound 11f]     260.8 to 263.8 °C
3  CSc1nnc(-c2ccc(N=Nc3c(O)c4ccccc4oc3=O)cc2)o1 [Compound 11a]     211.6 to 212.1 °C
4  O=c1oc2ccccc2c(O)c1N=Nc1ccc(-c2nnc(SCc3ccccc3Cl)o2)cc1 [Compound 11e]     236.8 to 237.5 °C
5  O=c1oc2ccccc2c(O)c1N=Nc1ccc(-c2nnc(SCc3ccccc3)o2)cc1 [Compound 11d]     243.1 to 243.8 °C
6  O=c1oc2ccccc2c(O)c1N=Nc1ccc(-c2nnc(SCc3ccccc3F)o2)cc1 [Compound 11g]     240.1 to 242.2 °C
7  CCCSc1nnc(-c2ccc(N=Nc3c(O)c4ccccc4oc3=O)cc2)o1 [Compound 11c]     205.5 to 206.8 °C
8  CCSc1nnc(-c2ccc(N=Nc3c(O)c4ccccc4oc3=O)cc2)o1 [Compound 11b]  290 to 291 °C (dec.)
